System: Saccharomyces cerevisiae BY4741 SeMeCo community
method: z-score of subpopulation abundance vs DMSO median, subpopulation auxotrophic for LUM; higher = larger share of this subpopulation than in DMSO controls
setup conditions: 10 µM; 24 h; SM minimal medium; subpopulation (auxotrophy): LUM
Counter-ions that a name gives are not always drawn.
Category scheme (z-score of subpopulation abundance): low = under -0.4, moderate = from -0.4 up to 0.3, high = 0.3 and over

As a guide, the following entries are already answered.
{"compound": "C[C@H]1[C@H](NC(=O)/C(=N\\OC(C)(C)C(=O)O)c2csc(N)n2)C(=O)N1S(=O)(=O)O", "class label": "high"}
{"compound": "CN(C/C=C/C#CC(C)(C)C)Cc1cccc2ccccc12 [Terbinafine HCl]", "class label": "high"}
{"compound": "CC[C@@]1(O)C(=O)OCc2c1cc1n(c2=O)Cc2cc3c(CN(C)C)c(O)ccc3nc2-1 [Topotecan HCl]", "class label": "low"}
{"compound": "COCCCN1CCC(NC(=O)c2cc(Cl)c(N)c3c2OCC3)CC1 [Prucalopride Succinate]", "class label": "high"}
{"compound": "CCCCOc1ccc(C(=O)CCN2CCCCC2)cc1 [Dyclonine HCl]", "class label": "moderate"}

Which class does CCCc1nn(C)c2c(=O)[nH]c(-c3cc(S(=O)(=O)N4CCN(C)CC4)ccc3OCC)nc12 [Sildenafil] fall in?
moderate

Which class does CN(C)CCc1c[nH]c2ccc(Cn3cncn3)cc12 [Rizatriptan Benzoate] fall in?
low

Which class does NC12CC3CC(CC(C3)C1)C2 [Amantadine] fall in?
moderate

Which class does O=C(O)c1cccnc1Nc1cccc(C(F)(F)F)c1 fall in?
high

Which class does CC(=O)OCC1=C(C(=O)O)N2C(=O)[C@@H](NC(=O)Cc3cccs3)[C@H]2SC1 fall in?
moderate

Which class does COC(=O)C1=C(C)NC(C)=C(C(=O)OCCN(C)Cc2ccccc2)C1c1cccc([N+](=O)[O-])c1 (stereo unspecified) [Nicardipine HCl] fall in?
moderate

* * *

Tested on: Saccharomyces cerevisiae BY4741 SeMeCo community
method: z-score of subpopulation abundance vs DMSO median, subpopulation auxotrophic for HLUM; higher = larger share of this subpopulation than in DMSO controls
setup conditions: 10 µM; 24 h; SM minimal medium; subpopulation (auxotrophy): HLUM
Structures can show the parent of a compound that is named as a salt.
recorded endpoint: z-score of subpopulation abundance

Solved entries (count: 2):
{"compound": "NC(=O)N1c2ccccc2CC(=O)c2ccccc21 [Oxcarbazepine]", "z-score of subpopulation abundance": 0.1}
{"compound": "C#CCN(C)Cc1ccccc1 [Pargyline hydrochloride]", "z-score of subpopulation abundance": 0.1}

// next item, z-score of subpopulation abundance requested
Quick note, z-score of subpopulation abundance for CC1=C(C(=O)O)N2C(=O)[C@@H](NC(=O)[C@H](N)C3=CCC=CC3)[C@H]2SC1 [Cefradine] landed at 0.1

* * *

Test system: Saccharomyces cerevisiae BY4741 SeMeCo community
method: z-score of subpopulation abundance vs DMSO median, subpopulation auxotrophic for U; higher = larger share of this subpopulation than in DMSO controls
setup conditions: 10 µM; 24 h; SM minimal medium; subpopulation (auxotrophy): U
Where a name gives a salt, the structure may show the parent alone.
recorded endpoint: z-score of subpopulation abundance
// keep it numeric: no unit symbol after the value

Quick note, z-score of subpopulation abundance for CCOc1ccc(NC(C)=O)cc1 landed at 0.86

Quick note, z-score of subpopulation abundance for CN1CCN(CCCN2c3ccccc3Sc3ccc(Cl)cc32)CC1 [Prochlorperazine dimaleate salt] landed at -0.36

Quick note, z-score of subpopulation abundance for C[C@]1(COc2ccc(N3CCC(Oc4ccc(OC(F)(F)F)cc4)CC3)cc2)Cn2cc([N+](=O)[O-])nc2O1 landed at -0.77

Quick note, z-score of subpopulation abundance for CCCCCCCN(CC)CCCC(O)c1ccc(NS(C)(=O)=O)cc1 (configuration not stated) [Ibutilide Fumarate] landed at 0.93

Quick note, z-score of subpopulation abundance for CC1CCc2cc(F)cc3c(=O)c(C(=O)O)cn1c23 (configuration not stated) landed at 0.29

Quick note, z-score of subpopulation abundance for CN(C)CCCN1c2ccccc2CCc2ccc(Cl)cc21 [Clomipramine HCl] landed at 1.4

Quick note, z-score of subpopulation abundance for CO[C@H]1C[C@@H]2CC[C@@H](C)[C@@](O)(O2)C(=O)C(=O)N2CCCC[C@H]2C(=O)O[C@H]([C@H](C)C[C@@H]2CC[C@@H](O)[C@H](OC)C2)CC(=O)[C@H](C)/C=C(\C)[C@@H](O)[C@@H](OC)C(=O)[C@H](C)C[C@H](C)/C=C/C=C/C=C/1C [Rapamycin (Sirolimus)] landed at 3.85

* * *

Test system: Saccharomyces cerevisiae BY4741 SeMeCo community
method: z-score of subpopulation abundance vs DMSO median, subpopulation auxotrophic for HLUM; higher = larger share of this subpopulation than in DMSO controls
setup conditions: 10 µM; 24 h; SM minimal medium; subpopulation (auxotrophy): HLUM
Counter-ions that a name gives are not always drawn.
# key: entry, value: z-score of subpopulation abundance
// keep it numeric: no unit symbol after the value

Solved entries (count: 5):
{"compound": "CC[C@@]1(O)C(=O)OCc2c1cc1n(c2=O)Cc2cc3c(CN(C)C)c(O)ccc3nc2-1 [Topotecan HCl]", "z-score of subpopulation abundance": -0.39}
{"compound": "CN1CCCN=C1/C=C/c1cccc(O)c1 [Oxantel Pamoate]", "z-score of subpopulation abundance": -0.41}
{"compound": "CCCN1CCCC[C@H]1C(=O)Nc1c(C)cccc1C [Ropivacaine]", "z-score of subpopulation abundance": -0.55}
{"compound": "O=C1c2cccc3c2[C@H](CCC3)CN1[C@@H]1CN2CCC1CC2 [Palonosetron HCl]", "z-score of subpopulation abundance": -0.14}
{"compound": "CCN1CCCC1CNC(=O)c1cc(S(=O)(=O)CC)c(N)cc1OC (centres undefined) [Amisulpride]", "z-score of subpopulation abundance": -0.8}

Quick note, z-score of subpopulation abundance for C#C[C@]1(O)CC[C@H]2[C@@H]3CCC4=CC(=O)CC[C@@H]4[C@H]3CC[C@@]21CC landed at -0.86

Quick note, z-score of subpopulation abundance for CCCN1CCCC[C@H]1C(=O)Nc1c(C)cccc1C [Ropivacaine HCl] landed at 0.18

Quick note, z-score of subpopulation abundance for CCCOc1ccc2[nH]c(NC(=O)OC)nc2c1 landed at 0.11

Quick note, z-score of subpopulation abundance for NC(=O)[C@@H]1CC[C@@H]2CN1C(=O)N2OS(=O)(=O)O [Avibactam sodium] landed at 1.05

Quick note, z-score of subpopulation abundance for O=C(CCCN1CCC(O)(c2ccc(Cl)cc2)CC1)c1ccc(F)cc1 landed at 0.12

Quick note, z-score of subpopulation abundance for C=C1CCN([C@H](C)[C@](O)(Cn2cncn2)c2ccc(F)cc2F)CC1 landed at 20.3

Quick note, z-score of subpopulation abundance for O=C1OCCN1/N=C/c1ccc([N+](=O)[O-])o1 landed at -0.24

Quick note, z-score of subpopulation abundance for CCCCNC(=O)NS(=O)(=O)c1ccc(C)cc1 [Tolbutamide] landed at 0.19

Quick note, z-score of subpopulation abundance for Oc1c(Cl)cc(Cl)c(Cl)c1Cc1c(O)c(Cl)cc(Cl)c1Cl landed at 7.77

Quick note, z-score of subpopulation abundance for CN1CCC(=C2c3ccccc3C=Cc3ccccc32)CC1 [Cyproheptadine hydrochloride] landed at -0.08

Quick note, z-score of subpopulation abundance for CC[C@H]1OC(=O)[C@H](C)[C@@H](O[C@H]2C[C@@](C)(OC)[C@@H](O)[C@H](C)O2)[C@H](C)[C@@H](O[C@@H]2O[C@H](C)C[C@H](N(C)C)[C@H]2O)[C@](C)(O)C[C@@H](C)CN[C@H](C)[C@@H](O)[C@]1(C)O landed at -0.5

Quick note, z-score of subpopulation abundance for CC/C=C(\C(=O)N[C@@H]1C(=O)N2C(C(=O)OCOC(=O)C(C)(C)C)=C(COC(N)=O)CS[C@H]12)c1csc(N)n1 [Cefcapene Pivoxil Hydrochloride] landed at 0.1

Quick note, z-score of subpopulation abundance for CC1=C(C(=O)OCCN(Cc2ccccc2)c2ccccc2)C(c2cccc([N+](=O)[O-])c2)C(P2(=O)OCC(C)(C)CO2)=C(C)N1 (centres undefined) landed at 1.4

Quick note, z-score of subpopulation abundance for NC(=O)c1cnccn1 [Pyrazinamide] landed at -0.48

* * *

System: Saccharomyces cerevisiae BY4741 SeMeCo community
method: z-score of subpopulation abundance vs DMSO median, subpopulation auxotrophic for H; higher = larger share of this subpopulation than in DMSO controls
setup conditions: 10 µM; 24 h; SM minimal medium; subpopulation (auxotrophy): H
recorded endpoint: z-score of subpopulation abundance
// keep it numeric: no unit symbol after the value

Solved entries (count: 4):
{"compound": "C[C@H]1c2cccc(O)c2C(O)=C2C(=O)[C@]3(O)C(O)=C(C(N)=O)C(=O)[C@@H](N(C)C)[C@@H]3[C@@H](O)[C@@H]21 [Doxycycline]", "z-score of subpopulation abundance": -0.79}
{"compound": "CCn1cc(C(=O)O)c(=O)c2cc(F)c(N3CCNCC3)nc21 [Enoxacin]", "z-score of subpopulation abundance": -0.39}
{"compound": "O=S1(=O)CCN(CN2CCS(=O)(=O)NC2)CN1 [Taurolidine]", "z-score of subpopulation abundance": -0.57}
{"compound": "C/C(=C\\C(=O)OCCCCCCCCC(=O)O)C[C@@H]1OC[C@H](C[C@@H]2O[C@H]2[C@@H](C)[C@H](C)O)[C@@H](O)[C@H]1O [Mupirocin calcium]", "z-score of subpopulation abundance": 0.77}

// next item, z-score of subpopulation abundance requested
Quick note, z-score of subpopulation abundance for CONC(=O)Nc1ccc(-c2sc3c(c2CN(C)C)c(=O)n(-c2ccc(OC)nn2)c(=O)n3Cc2c(F)cccc2F)cc1 [Relugolix] landed at 0.68
